Target: T1, human FcRn/b2M (human, UniProt P61769 21-119, biotinylated)
T1 construct: bought recombinant biotinylated protein (ACRO FCM-H82W4 or Immunitrack ITF01); also called hFcRn; hFcRn/hb2M
Assay: SPR pH 6.0;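 further: surface plasmon resonance kinetics at 25 °C, diluted periplasmic extracts injected over immobilized ligand surfaces, 120 s association then 600–3600 s dissociation, running buffer containing 150 mM NaCl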
readout: koff (s⁻¹)

Previously resolved entries follow.
1. T0263018B11 T57N (VHH, name in Kabat numbering, FLAG3-His6 tagged) VHH: EVQLVESGGGVVQPGGSLRLSCAASGFTFSSYAMYWVRQAPGKGLEWVSAISSGGGSNDYADSVKGRFTISRDNSKNTLYLQMNSLRPEDTALYYCAADTLYTSLTWYSYWGQGTLVTVSS = 0.00086
2. T0263018B11 F27Y (VHH, name in Kabat numbering, FLAG3-His6 tagged) VHH: EVQLVESGGGVVQPGGSLRLSCAASGYTFSSYAMYWVRQAPGKGLEWVSAISSGGGSTDYADSVKGRFTISRDNSKNTLYLQMNSLRPEDTALYYCAADTLYTSLTWYSYWGQGTLVTVSS = 0.0012

P. T0263018B11 T57P (VHH, name in Kabat numbering, FLAG3-His6 tagged) VHH: EVQLVESGGGVVQPGGSLRLSCAASGFTFSSYAMYWVRQAPGKGLEWVSAISSGGGSPDYADSVKGRFTISRDNSKNTLYLQMNSLRPEDTALYYCAADTLYTSLTWYSYWGQGTLVTVSS
Q. T0263018B11 S56Q (VHH, name in Kabat numbering, FLAG3-His6 tagged) VHH: EVQLVESGGGVVQPGGSLRLSCAASGFTFSSYAMYWVRQAPGKGLEWVSAISSGGGQTDYADSVKGRFTISRDNSKNTLYLQMNSLRPEDTALYYCAADTLYTSLTWYSYWGQGTLVTVSS
Task: Between item P and item Q , which reported koff is smaller? Answer format: the label of the selected item.
Output: P
(P: 0.0015 s⁻¹, Q: 0.0022 s⁻¹)
